- ASSAY TEXT: anti-His antibody binders, primary screen, artefact control for SMM control protein annotation, biochemical, small-molecule microarray, 635 nm fluorescence (AID 1128);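 note: score merges feature fluorescence with signal-to-noise for each printed compound spot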
- CONDITION DETAILS: anti-His Alexa647 antibody binding, higher = more signal
ASSAY ENDPOINT: composite z-score

                            compound_smiles  number
0  CO[C@H]1COC(=O)CCC[C@@H](C)[C@H](OC)COC(=O)[C@@H]2CCCN2C(=O)CC=C[C@@H]1C  -0.278
1  CCCCC#C[C@@H]1C=C[C@H](Oc2ccc(C(=O)OC)cc2)[C@@H](COC(=O)OCC)O1   0.516
2  O=C1[C@H]2[C@H]3[C@H](O)[C@H](O)CC(=NOC[C@@H](O)COCc4ccco4)[C@H]3CC[C@H]2C(=O)N1Cc1ccccc1  -0.267
3  CON=C[C@@H](NS(=O)(=O)c1ccc(C)cc1)[C@H](C)C=CCC(=O)OC     0.4

* * *

composite z-score values for the molecules below.
- ASSAY TEXT: small-molecule microarray binders of probe aEGFR, primary screen, biochemical, biotinylated probe, 635/667 nm fluorescence (AID 1097);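 note: probe is a biotinylated anti-EGFR antibody binding compounds printed on slides; score combines fluorescence near 667 nm and signal to noise of each spot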
- CONDITION DETAILS: higher = more signal
ASSAY ENDPOINT: composite z-score

                                    molecule   number
 0  C[C@@H](c1ccccc1)N1C(=O)[C@H]2[C@H]3[C@H](O)[C@H](O)CC(=NOCc4ccccc4)[C@H]3CC[C@H]2C1=O  -0.0424
 1  CC(C)CON=C1C[C@@H](O)[C@@H](O)[C@@H]2[C@@H]3C(=O)N(C[C@@H]4CCCO4)C(=O)[C@@H]3CC[C@@H]12    -0.22
 2  CO[C@H]1COC(=O)[C@@H](C)COC(=O)[C@H](COCc2ccccc2)NC(=O)CC=C[C@H]1C   -0.196
 3  CCOC(=O)[C@H](CC(C)C)NC(=O)CCC1CC(OC(=O)NCCc2ccc(F)cc2)CC2(CCCC(COC(=O)NCCC(C)C)O2)O1 (stereo not given in full)  -0.0778
 4  CO[C@@H]1COC(=O)[C@@H]2CCCN2C(=O)[C@@H](C)COC(=O)CC=C[C@H]1C  -0.0788
 5  CCOC(=O)[C@H](CC(C)C)NC(=O)CCC1CC(OC(=O)NCc2cccc3ccccc23)CC2(CCCC(COC(=O)NCCCN3CCCC3=O)O2)O1 (stereo not given in full)  -0.0238
 6  CC(C)CON=C1C[C@@H](O)[C@@H](O)[C@@H]2[C@@H]3C(=O)N(C4CCCCC4)C(=O)[C@@H]3CC[C@H]12  -0.0817
 7  CCOC(=O)C1=NO[C@@]2(C=C(Br)C3(OCCCO3)[C@H]3O[C@H]32)C1   -0.004
 8  COc1ccc(COC(=O)NN=C2C[C@@H](O)[C@@H](O)[C@@H]3[C@@H]4C(=O)N(c5ccc(F)cc5F)C(=O)[C@@H]4CC[C@H]23)cc1   -0.171
 9  CCOC(=O)[C@H](Cc1ccccc1)NC(=O)CCC1CC(OC(=O)NCCc2ccc(F)cc2)CC2(CCCC(COC(=O)NCCOC)O2)O1 (stereo not given in full)    0.153
10  COC(=O)[C@@H]1CC[C@H](C)[C@@H](c2ccc(C)cc2)N1C(=O)c1ccc(C=NOCC[C@@H]2C=C[C@H](OC(C)=O)[C@@H](COC(C)=O)O2)cc1  -0.0397
11  C#CCCCON=C1C[C@@H](O)[C@@H](O)[C@@H]2[C@@H]3C(=O)N(CC)C(=O)[C@@H]3CC[C@@H]12  -0.0972
12  O=c1n(Cc2cc3c(cc2Cl)OCO3)c(=O)n2n1CC[C@@H]1C(=NOCc3ccccc3)[C@H]3O[C@H]3[C@@H](O)[C@@H]12  -0.0371
13  COc1cccc([C@H]2Oc3ccc(OC)cc3C(=NOC[C@@H](O)COCc3ccco3)[C@@H]2O)c1   -0.274
14  CCOC(=O)[C@H](CC(C)C)NC(=O)CCC1CC(OC(=O)NCCc2ccc(F)cc2)CC2(CCCC(COC(=O)NCCc3ccccc3OC)O2)O1 (stereo not given in full)   0.0004
